Test: NCI Yeast Anticancer Drug Screen. Data for the cln2 rad14 strain (AID 165);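 also: 0% = growth equal to vehicle treated cultures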
Conditions: S. cerevisiae cln2 rad14 strain, at 50.0 µM (retest, dose inferred, filed as 5.0), hits give high values
Compounds without any hit were thinned out: in the full panel of roughly 79,000, 15% have a hit.
Form field: growth inhibition (one value per entry).
I only need the number, in %, no unit after it.

Examples with answers:
1. N#Cc1ccc(Oc2nc3ccccc3nc2-c2ccccc2)cc1 | 23
2. O=C(NNc1ccccc1)c1ccccc1Cl | 89
3. O=C(N/N=C/c1ccccc1O)c1ccccc1-n1cccc1 | 49
4. CN(C)[C@H]1CC[C@H]2[C@@H]3CCC4C[C@@H](NC(=O)NC(Cc5ccccc5)c5nccs5)CC[C@]4(C)[C@H]3CC[C@]12C (stereo not given in full) | -16

Consider the additional molecule presented here.
Let me know recorded growth inhibition for CCc1cccc(C(C)(C)C)c1NC(=S)N/C=C(\C#N)C(=O)c1ccc2ccccc2c1 , thanks.
8

###

Experiment: NCI Yeast Anticancer Drug Screen. Data for the mlh1 rad18 strain (AID 175)
Details: S. cerevisiae mlh1 rad18 strain growth inhibition; at 50.0 µM
The panel holds about 79,000 compounds, 15% with a hit somewhere; the sample as a whole holds those more often. The source made the active and inactive calls. No stated cut-off is given here; in the data, active means growth inhibition above about 70%; inactive means the rest.
Please state which outcome applies, choosing from Y = active, N = inactive

Worked cases, answers included:
1) CSC(=S)N/N=C\C(C)=N/N=C(N)N | Y
2) CC(O)CCc1nc2ccccc2[nH]1 (configuration not stated) | N
3) c1ccc([P+](c2ccccc2)(c2ccccc2)C2CCCCO2)cc1 (configuration not stated) | Y
4) N#CC(Br)(C#N)Cc1ccccc1 | Y

Tell me the recorded outcome of this test for Oc1ccc(O)c(C2CCCCC2)c1 .
Y

Outcome logged for Cc1c(C2Cc3ccccc3N2C(=O)/C=C\C(=O)O)c2ccccc2n1C (configuration not stated) in this assay:
N

For this compound, state the assay outcome: C=CC(=O)c1ccc2c(c1)OCCOCCOCCOCCOCCO2
N

Please indicate how the test categorized CCc1n[nH]c(CC)c1CCCCCCOc1ccc(OC)cc1Cl .
Y

Outcome logged for O=C(/C=C/c1ccccc1Cl)c1ccc(F)cc1 in this assay:
N

###

Recorded growth inhibition values for a group of compounds are listed next.
Experiment: NCI Yeast Anticancer Drug Screen. Data for the bub3 strain (AID 167)
Settings: S. cerevisiae bub3 mutant strain, at 50.0 µM, hits give high values
The panel holds about 79,000 compounds, 15% with a hit somewhere; the sample as a whole holds those more often.
Express it in %; write the number only.

1) CCOC(=O)N1CCN(CCCCCCOc2c(Cl)cc(Cl)cc2Cl)CC1 | 97.2
2) [Pt].c1ccc([PH+](CC[PH+](CC[PH+](c2ccccc2)c2ccccc2)CC[PH+](c2ccccc2)c2ccccc2)c2ccccc2)cc1 | 89.8
3) CC1=CCC[C@@H]2C1(C)CCC(C)[C@@]2(C)CC1=CC(=O)C=CC1=O (stereo not given in full) | 86.8
4) O=C(CC1C(=O)c2ccccc2C1=C1C(=O)c2ccccc2C1=O)c1ccccc1 (stereo not given) | 79.2
5) Cc1cc(N(CCOS(C)(=O)=O)CCOS(C)(=O)=O)ccc1C=Nc1ccccc1C(=O)O | 38.5
6) NC(=S)C(=S)N/C=C/c1nc2ccccc2[nH]c1=O | 90.7
7) CCOC(=O)NN(C(=O)OCC)c1ccc(N=Nc2ccc(OC)cc2)n1C | 74
8) CC(/C=C/c1ccco1)=N\NC(=S)NCC(C)C | 83.5

Determine from records and report growth inhibition for Nn1c(-c2ccccc2)nn(C(=O)c2ccccc2)c1=O
14.7

Tell me measured growth inhibition for CCOC(=O)C(NC(C)=O)[CH](c1ccccc1)[Sn]([c]1ccccc1)([c]1ccccc1)[c]1ccccc1 (stereo not given) please.
96.2

###

Assay: NCI Yeast Anticancer Drug Screen. Data for the mlh1 rad18 strain (AID 175)
Settings: S. cerevisiae mlh1 rad18 strain growth inhibition; at 50.0 µM (retest, dose inferred, filed as 5.0)
Compounds without any hit were thinned out: in the full panel of roughly 79,000, 15% have a hit. Activity calls are given as the source filed them. Rule as the data show it: active = growth inhibition above about 70%; inactive = the rest.
Choose the fitting class; nothing outside Yes = active, No = inactive is accepted.

Given O=CC(=C\c1ccco1)/C(C=O)=C\c1ccco1 , state the outcome it received in this test.
Yes

Hello, I am checking results. What call was entered for OC(c1cc(-c2ccccc2)nc2cc(Cl)ccc12)C1CCCCN1 (stereo unspecified) ?
No

Kindly provide the recorded test outcome for the following molecule: CC1=C(C#N)C(=O)OC1(C)C(CC(=O)c1ccccc1)c1ccccc1 (stereo unspecified)
No

Recorded call for CCc1cccc(C(C)(C)C)c1NC(=S)N/C=C(\C#N)C(=O)c1ccc2ccccc2c1 ?
No

Per the assay record, what outcome was assigned to CC(C)C(O)(C(=O)OCN1C(=O)C2C3C=CC(C2C1=O)C1C2C(=O)N(COC(=O)C(O)(C(C)C)C(C)O)C(=O)C2C31)C(C)O (stereo unspecified) ?
No

Each molecule tested received a call. Report the one for CCC(=O)OC1=C(Br)C(=O)c2ccccc2C1=O .
Yes

###

Experiment: NCI Yeast Anticancer Drug Screen. Data for the cln2 rad14 strain (AID 165);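 also: 0% = growth equal to vehicle treated cultures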
Conditions: S. cerevisiae cln2 rad14 strain, at 50.0 µM (retest, dose inferred, filed as 5.0)
Experimental: Growth inhibition of yeast strains with defined genetic alterations is measured as a screen for potential anti-cancer activity. Selected strains with alterations in DNA damage repair or cell cycle control were exposed to compounds and growth inhibition was measured relative to vehicle treated controls. The strain used in this assay is cln2 rad14
The panel holds about 79,000 compounds, 15% with a hit somewhere; the sample as a whole holds those more often. Active and inactive are the calls of the source. Rule as the data show it: active = growth inhibition above about 70%; inactive = the rest.
Respond using exactly one of the listed classes: active, inactive

Previously resolved entries follow.
1) C=CCNCCC1CCCCCC1 | active
2) OC(CN1CCc2ccccc2C1)c1ccc2ccccc2c1 (configuration not stated) | inactive
3) Cc1c(C2Cc3ccccc3N2C(=O)/C=C\C(=O)O)c2ccccc2n1C (configuration not stated) | inactive
4) COc1ccc(OC(=O)c2ccccc2)c2c1C(=O)C=CC2=O | inactive
5) Cc1ccc(/C=C/C(=O)/C=C/c2ccc(C)o2)o1 | active

Assay result, entry S=C(N/N=C(/c1ccccc1)c1ccccn1)Nc1ccccc1 — outcome?
active

Lab log entry: O=S(=O)(Nc1ccccc1)c1ccccc1CC(O)(c1ccccc1)c1ccccc1 — outcome as called in the assay?
active

Entry CCOC(=O)c1sc2[n+](c1C)C(=O)/C(=C/c1ccc([N+](=O)[O-])cc1)S2 : call = ?
active

###

Assay: NCI Yeast Anticancer Drug Screen. Data for the mec2-1 strain (AID 157)
Settings: S. cerevisiae mec2-1 strain, at 50.0 µM
Procedure: Growth inhibition of yeast strains with defined genetic alterations is measured as a screen for potential anti-cancer activity. Selected strains with alterations in DNA damage repair or cell cycle control were exposed to compounds and growth inhibition was measured relative to vehicle treated controls. The strain used in this assay is mec2-1
About 79,000 compounds went through this panel and 15% of them were active in at least one assay; those are over-represented in the sample as a whole. Activity calls are given as the source filed them. No stated cut-off is given here; in the data, active means growth inhibition above about 70%; inactive means the rest.
Just give me one of these, please: y for active, n for inactive

Look over these answered cases.
1) CSC(SC)=C1C(=O)NC(Cc2ccccc2)C1=O (stereo unspecified) | n
2) CSC(=S)N/N=C/c1cccc(C)n1 | y
3) CC(C)CCCC(=O)CCCCCCC(=O)CCN(O)C(=O)C(N)CO (stereo unspecified) | y
4) Oc1cccc2ccncc12 | n
5) CC(=O)NCC1OC2COC(c3ccccc3)OC2C(NC(=O)c2ccccc2)C1OC(=O)c1ccccc1 (stereo unspecified) | n
6) CCN(CC)c1ccc(N=Nc2ccc(-c3nc4ccc[n+](C)c4s3)cc2)cc1 | y
7) CC(=O)OC1=CC2(OC(C)=O)CC(C)(C)C1C1C(=O)C=CC(=O)C12 (stereo unspecified) | n
8) CCCOC(=O)C1CCCCC1C(=O)OCCC (stereo unspecified) | n

Outcome logged for Cc1cccc(NC(=S)N/N=C(/c2ccccc2)c2ccccn2)c1 in this assay:
n

Which outcome was assigned to CC(CCCOC(c1ccccc1)(c1ccccc1)c1ccccc1)OC(=O)Nc1ccccc1 (stereo unspecified) in this test?
y

Could you check what this test reported for O=C(Nc1ccc(Cl)cc1)c1cccc([N+](=O)[O-])c1O ?
n

###

Test: NCI Yeast Anticancer Drug Screen. Data for the rad50 strain (AID 155);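 also: 0% = growth of vehicle-only cultures of the same strain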
Conditions: S. cerevisiae rad50 strain growth inhibition; at 5.0 µM (retest, dose inferred, filed as 0.5); hits give high values
Description: Growth inhibition of yeast strains with defined genetic alterations is measured as a screen for potential anti-cancer activity. Selected strains with alterations in DNA damage repair or cell cycle control were exposed to compounds and growth inhibition was measured relative to vehicle treated controls. The strain used in this assay is rad50
The panel holds about 79,000 compounds, 15% with a hit somewhere; the sample as a whole holds those more often.
This listing pairs compounds with measured growth inhibition.
Give your result in % as a bare value.

Observe how each entry below is paired with its result.
1) O=CC(=C\c1ccco1)/C(C=O)=C\c1ccco1 | 11
2) CCCCCCCCCCCCCCCCCC(=O)OC(C)CCC1CCCO1 (stereo unspecified) | 4
3) COc1ccc(OC(=O)c2ccccc2)c2c1C(=O)C=CC2=O | 5
4) COc1cc([C@H]2c3c(cc(OC)c(OC)c3OC)CC3COC(=O)[C@@H]32)cc2c1OCO2 (stereo partly specified) | 4
5) c1ccc(Cn2nnc(-c3ccccc3)c2-c2ccccc2)cc1 | -2
6) CCN(c1ccc(C=O)cc1)c1ccc([N+](=O)[O-])cc1[N+](=O)[O-] | 3
7) CCCCCC(C)NCC(O)Cc1ccc(OCCCC)cc1 (stereo unspecified) | 22
8) COC(=O)c1c(C(N)=O)c(C)n(NC(=O)Nc2ccccc2)c1C | 25
9) C=C1C(=O)C23OC2C1CCC(=O)C1(C)CC[C@H](OC(C)=O)C(C)(C)[C@H]1CC3O (stereo partly specified) | 86
10) CCCCCCCCCCCCCCCCCC[n+]1cccc(C(=O)N2CCOCC2)c1 | 91

Let us move to another entry and its growth inhibition.
Please indicate growth inhibition recorded for C=CC1(c2ccc(-c3ccccc3)cc2)OCCO1
1
